test: protein stability index of a GFP-peptide fusion (yeast GPS) (PSI 1-4); higher = more stable; sorted into four equal gates, so the index is relative within each strain; conditions: pdr5∆
Recorded protein stability index, one value per entry.
The answer should be a number; do not append a unit.

Solved entries:
{"entrySequence": "RTLWPEFIPPDPTKVTE [SSN8]", "result": 2.73}
{"entrySequence": "DSIPRDVAYLLKSESAT [YGL172W/NUP49]", "result": 3.11}
{"entrySequence": "LKTRYVGRQDPKKHLSE [RPN11]", "result": 3.11}
{"entrySequence": "PTLPTNHNKTKLLKSLK [PRP8]", "result": 1.6}
{"entrySequence": "ILAAAHRDAYSGGSVNL [PRE2]", "result": 3.2}

# protein stability index of TKDKAKKIREIYRYDEM [BRR2] = 2.71

Briefly, protein stability index measured for IVPVISTIENVLFYIGR [COB] : 1.68

----------
test: protein stability index of a GFP-peptide fusion (yeast GPS) (PSI 1-4); higher = more stable; sorted into four equal gates, so the index is relative within each strain; conditions: san1∆
# protein stability index per entry

{"entrySequence": "SNNQVIKMQRQFSQLND [MED6]", "protein stability index": 3.03}

Looking up DILAKLFSLEKPNLNYF [SWI1] , I see its protein stability index listed as 1.96

// AIAGNSTTNSDVSLLLQ [RGR1] : protein stability index value = 3.03

----------
test: protein stability index of a GFP-peptide fusion (yeast GPS) (PSI 1-4); higher = more stable; sorted into four equal gates, so the index is relative within each strain; details: pdr5∆
Listing: protein stability index of selected sequences
Returns: the value as a bare number; no unit string appended.

{"entrySequence": "DRVQQDSEDEDSMKDTT [YML031W/NDC1]", "protein stability index": 3.22}

Summary for this sequence, MSDFQKEKVEEQEQQQQ [RPS20] : protein stability index is 3.17

In plain terms, LQYLDKHIKNLEDDSLL [RPN12] has a documented protein stability index of 3.42

The value of protein stability index measured for the sequence KADDDSVTIISAGNDKM [ASC1] turned out to be 2.92

protein stability index for KKKRKKKNKSAIDGIFG [RMP1] is 2.83

protein stability index measured on HHAIEEAESLLQFHVAT [RPO21] = 2.89

Memo: EKSDALVGVYRQQQENS [SMC1] , reported protein stability index: 3.37

Entry under test: LQIKRDVLDDLYRKLQR [CSE2] . Its protein stability index was 3.11

Consider EQDALFITRLAQGLLHL [RPN1] . Its measured protein stability index is 2.69

The recorded protein stability index for entry SMERKVQGAAPWDTSLE [MCD1] equals 3.1

For RKTWKRQNTLSLWRYRK [RPL15A] the sequence record lists protein stability index as 3.1

Entry under test: KILNIIKCSQSSHLSDN [POP5] . Its protein stability index was 2.77

Entry TSGEAAALGMGLCMLGT [RPN2] ; protein stability index = 2.95

Record IVPLTEGDIQVLKSYGA [RPT1] , field protein stability index: 3.14

protein stability index measured on ITQIVEKDFCTSCLQNN [SRB8] = 2.71

Entry KSAYANTEKDYKMVQEQ [SMC2] ; protein stability index = 3.02

From: the supplement of paper PMC9732359
